Tested on: U251 CNS
Answer with one of the outcomes y for active, n for inactive

INSERT INTO assay_data (compound, category_label) VALUES
  ('Nc1ccc2c(c1)Cc1cc(Cl)c(Cl)cc1-2', 'n'),
  ('CN(C)c1ccc2nc3ccc(=N)cc-3sc2c1', 'n');

Q: Dear colleague, could you share the recorded outcome for CC[C@]12C=CCN3CC[C@]4(C(=C(C(=O)OC)C1)Nc1cc(OC)c(OC(C)=O)cc14)[C@@H]32 when you have a moment?
Result: y

Q: Dear colleague, could you share the recorded outcome for COc1cc(OC)cc(Oc2nc3cc(N)cc(N)c3nc2-c2ccccc2)c1 when you have a moment?
Result: n

====

System: SK-OV-3 ovarian
METHOD: NCI tumour cell line growth inhibition, 48 h; in the data active = GI50 below about 0.43 µM; inactive = the rest
Answer with one of the outcomes active, inactive

INSERT INTO assay_data (compound, category_label) VALUES
  ('COc1ccc(C2=C(c3cn(C)c4ccccc34)C(=O)NC2=O)cc1', 'inactive'),
  ('CC1(C)CCC(S(=O)(=O)c2ccc3c(c2)/C(=N\O)c2cc(S(=O)(=O)N4CCN(c5ccc(F)cc5O)CC4)ccc2-3)CC1', 'active'),
  ('Cc1cccc(NC(=O)c2sc3nc4c(cc3c2N)CCCC4)c1', 'inactive'),
  ('CN(C)c1ccc2nc3ccc(=N)cc-3sc2c1', 'inactive');

Then there is this compound:
Q: Dear colleague, could you share the recorded outcome for Nc1nc2c(c3cnccc13)C(c1cccc(Br)c1)Cc1cnccc1-2 (stereo not given) when you have a moment?
Result: inactive

====

Each item that follows carries a reported GI50.
Test system: SF-539 CNS
METHOD: NCI tumour cell line growth inhibition, 48 h

Completed entries (count: 3):
INSERT INTO measurements (entry_smiles, readout_value) VALUES
  ('COc1cc2c3c(n(CCCN=[N+]=[N-])c(=O)c2cc1OC)-c1ccc(C#N)cc1C3=O', '17.4 µM'),
  ('Cc1c(NC(=O)c2cc(C(N)=O)nc3cc(F)ccc23)c(C(F)(F)F)nn1Cc1ccc(C#N)cc1', '14.3 µM'),
  ('CN(C)c1ccc2nc3ccc(=N)cc-3sc2c1', '2.2 µM');

Q: Supply measured GI50 of CC(C)(O)c1coc(S(=O)(=O)/N=C(\O)Nc2c3c(cc4c2CCC4)CCC3)c1 in your reply.
Result: > 100 µM

Q: Supply measured GI50 of Nc1ccc2c(c1)Cc1cc(Cl)c(Cl)cc1-2 in your reply.
Result: 57.3 µM

====

Each item that follows carries a reported TGI.
Tested on: UACC-62 melanoma
METHOD: NCI tumour cell line growth inhibition, 48 h

INSERT INTO results (compound, measurement_label, readout_value) VALUES
  ('C=CCNC(=O)/C=C\C(=O)O', 'TGI', '> 100 µM'),
  ('O=c1[nH]c(=O)n(C2OC(CO)C(N(O)Cc3ccc(F)cc3)C2O)cc1Br (stereo unspecified)', 'TGI', '> 100 µM'),
  ('Cc1[nH]c2c(C)cccc2c1C1Cc2ccccc2N1 (stereo unspecified)', 'TGI', '32.8 µM'),
  ('COc1ccc2c(c1OC)CN1CCc3cc4c(cc3C1C2)OCO4 (stereo unspecified)', 'TGI', '> 100 µM'),
  ('O=c1c2ccccc2nc(/C=C(\O)c2ccccc2)n1-c1ccccc1Cl', 'TGI', '> 100 µM'),
  ('C=C(C(=O)OC)[C@H]1CC/C(C)=C/CC[C@@](C)(O)C=CC[C@@]2(C)O[C@@H]2C1', 'TGI', '> 100 µM'),
  ('CC(NC(=O)C(C)C(=O)Nc1ccc(C(F)(F)F)cc1)C(N)=O (stereo unspecified)', 'TGI', '> 100 µM'),
  ('CCOC(=O)N1C=NC23C(c4ccccc4)C(c4ccccc4)C12C(=O)N(C)C(=O)N3C (stereo unspecified)', 'TGI', '> 100 µM'),
  ('COc1ccc2c(c1)N(CCO)C1=C(C(=O)OC1)C2c1cc(OC)c(OC)c(OC)c1 (stereo unspecified)', 'TGI', '> 50 µM'),
  ('CON(C)C(=O)CCCO', 'TGI', '> 100 µM');

Q: Supply measured TGI of CCOC(=O)C(=O)/C=C(\C)Nc1c(NC2OCC(OC(C)=O)C(OC(C)=O)C2OC(C)=O)nc(SC)[nH]c1=O (stereo unspecified) in your reply.
Result: > 100 µM

====

System: SF-268 CNS
METHOD: NCI tumour cell line growth inhibition, 48 h
MEASUREMENT_LABEL: TGI

INSERT INTO assay_data (molecule, tested_on, readout_value) VALUES
  ('O=c1c2sc3nc(NCCN4CCCCC4)ncc3c2ncn1-c1ccccc1', 'SF-268 CNS', '> 100 µM'),
  ('Cc1[nH]c2c(C)cccc2c1C1Cc2ccccc2N1 (stereo not given)', 'SF-268 CNS', '48.2 µM'),
  ('C[C@]12CCC3c4ccc(O)cc4CC[C@H]3C1CC(=O)N(CCN1CCCC1)C2=O (stereo not given in full)', 'SF-268 CNS', '> 10 µM');

Q: Supply measured TGI of COc1cc(/C=C/C(=O)c2cc(OC)c(OC)c(OC)c2)ccc1Oc1nc2c(c(=O)n(C)c(=O)n2C)n1C in your reply.
Result: 10.2 µM

Q: Supply measured TGI of CN(C)c1ccc2nc3ccc(=N)cc-3sc2c1 in your reply.
Result: 20 µM

Q: Supply measured TGI of COc1ccc(C2=C(c3cn(C)c4ccccc34)C(=O)NC2=O)cc1 in your reply.
Result: > 25 µM

Q: Supply measured TGI of CCN(CC)c1ccc(N=O)cc1 in your reply.
Result: 20.9 µM

Q: Supply measured TGI of CC1(C)OCC(C2CCC3(C)C4=CCC5C(C)(C)C(O)CCC5(C)C4CCC23C)CC(O)C1O (stereo not given) in your reply.
Result: 37.6 µM

Q: Supply measured TGI of CCN(CC)CCCNc1nc2ccccc2[n+]([O-])n1 in your reply.
Result: > 100 µM

Q: Supply measured TGI of Cn1c(=O)c2ccccc2c2nc3ccccc3nc21 in your reply.
Result: > 100 µM

====

System: PC-3 prostate
METHOD: NCI tumour cell line growth inhibition, 48 h
MEASUREMENT_LABEL: TGI

Completed entries (count: 7):
INSERT INTO measurements (compound, measurement_label, readout_value) VALUES
  ('O=C(Cc1csc2nc(-c3ccc(Br)cc3)cn12)N/N=C/c1cc(Br)ccc1O', 'TGI', '> 100 µM'),
  ('CC(=O)Nc1cc(C(=O)Nc2cc(C(=O)Nc3cc(C(=O)Nc4cc(C(=O)Nc5cc(C(=O)NCCC(=O)NCCCN(C)C)n(C)c5)n(C)c4)n(C)c3)n(C)c2)n(C)c1', 'TGI', '> 100 µM'),
  ('COc1ccc2[nH]c3c(C)c4ccnc(NCCCN(C)CCCNc5ccc6nnn7c8ccccc8c(=O)c5c67)c4c(C)c3c2c1', 'TGI', '1.91 µM'),
  ('Cc1sccc1C(=S)Nc1ccc(Cl)c(/C=N/OC(C)(C)C)c1', 'TGI', '32.5 µM'),
  ('Cn1c(-c2ccc(/C=N/N=C/c3ccc(-c4c[n+]5ccccc5n4C)cc3)cc2)c[n+]2ccccc12', 'TGI', '> 100 µM'),
  ('COc1ccccc1N1C(=O)C2C3c4ccccc4C(OC(C)=O)(c4ccccc43)C2C1=O (stereo not drawn)', 'TGI', '> 100 µM'),
  ('C=C(Br)CN(C)CC(=C)Br', 'TGI', '> 100 µM');

Alright, here's another compound for you.
Q: Supply measured TGI of COc1ccc2c(c1)CC1Cc3cc(OC)c(OC)cc3CN1CC2 (stereo not drawn) in your reply.
Result: > 100 µM

====

Each item that follows carries a reported TGI.
System: A498 renal
METHOD: NCI tumour cell line growth inhibition, 48 h

Completed entries (count: 8):
INSERT INTO results (molecule, measurement_label, readout_value) VALUES
  ('COC(=O)c1c2c(c[n+]([O-])c1C)C(=O)C=C(NCc1ccccc1)C2=O', 'TGI', '1.05 µM'),
  ('Cc1ccc(S(=O)(=O)N/N=C(/CC(=O)c2c(C)n([O-])c3ccccc3[n+]2=O)C(=O)Nc2ccc(C)c(C)c2)cc1', 'TGI', '> 100 µM'),
  ('COc1ccc2c(CCC(c3ccccc3)c3ccccc3)c3[n+](cc2c1OC)CCc1cc2c(cc1-3)OCO2', 'TGI', '6.8 µM'),
  ('CCN1C/C(=C\c2cc(OC)c(OC)c(OC)c2)C2=NN(c3ccccc3)C(c3cc(OC)c(OC)c(OC)c3)C2C1 (centres undefined)', 'TGI', '43.6 µM'),
  ('O=c1oc2ccccc2c(O)c1/C=N/C(=S)Nc1ccccc1', 'TGI', '> 100 µM'),
  ('O=C(CC(=O)Nc1ccccc1Cl)NNC(c1cc(N=Nc2ccc(Br)cc2)ccc1O)P(O)O (centres undefined)', 'TGI', '7.87 µM'),
  ('Cc1ncc(CCl)c2c1OC(C)(C)OC2', 'TGI', '> 100 µM'),
  ('COc1cc(Nc2cc(C)nc(N3CCN(c4ccnc5cc(Cl)ccc45)CC3)n2)cc(OC)c1', 'TGI', '0.658 µM');

Q: For A498 renal, give TGI of the listed molecule: CC(=O)OCC1OC(OC2=C(CC=C(C)C)C(=O)c3ccccc3C2=O)C(OC(C)=O)C(OC(C)=O)C1OC(C)=O (centres undefined)
Result: > 56.9 µM
